The following compounds are listed with their measured EC50 values.
Molecular target: human iNOS (Homo sapiens)
Construct: expressed in transfected cells; host or cells: HEK293
Sequence (P35228 whole entry): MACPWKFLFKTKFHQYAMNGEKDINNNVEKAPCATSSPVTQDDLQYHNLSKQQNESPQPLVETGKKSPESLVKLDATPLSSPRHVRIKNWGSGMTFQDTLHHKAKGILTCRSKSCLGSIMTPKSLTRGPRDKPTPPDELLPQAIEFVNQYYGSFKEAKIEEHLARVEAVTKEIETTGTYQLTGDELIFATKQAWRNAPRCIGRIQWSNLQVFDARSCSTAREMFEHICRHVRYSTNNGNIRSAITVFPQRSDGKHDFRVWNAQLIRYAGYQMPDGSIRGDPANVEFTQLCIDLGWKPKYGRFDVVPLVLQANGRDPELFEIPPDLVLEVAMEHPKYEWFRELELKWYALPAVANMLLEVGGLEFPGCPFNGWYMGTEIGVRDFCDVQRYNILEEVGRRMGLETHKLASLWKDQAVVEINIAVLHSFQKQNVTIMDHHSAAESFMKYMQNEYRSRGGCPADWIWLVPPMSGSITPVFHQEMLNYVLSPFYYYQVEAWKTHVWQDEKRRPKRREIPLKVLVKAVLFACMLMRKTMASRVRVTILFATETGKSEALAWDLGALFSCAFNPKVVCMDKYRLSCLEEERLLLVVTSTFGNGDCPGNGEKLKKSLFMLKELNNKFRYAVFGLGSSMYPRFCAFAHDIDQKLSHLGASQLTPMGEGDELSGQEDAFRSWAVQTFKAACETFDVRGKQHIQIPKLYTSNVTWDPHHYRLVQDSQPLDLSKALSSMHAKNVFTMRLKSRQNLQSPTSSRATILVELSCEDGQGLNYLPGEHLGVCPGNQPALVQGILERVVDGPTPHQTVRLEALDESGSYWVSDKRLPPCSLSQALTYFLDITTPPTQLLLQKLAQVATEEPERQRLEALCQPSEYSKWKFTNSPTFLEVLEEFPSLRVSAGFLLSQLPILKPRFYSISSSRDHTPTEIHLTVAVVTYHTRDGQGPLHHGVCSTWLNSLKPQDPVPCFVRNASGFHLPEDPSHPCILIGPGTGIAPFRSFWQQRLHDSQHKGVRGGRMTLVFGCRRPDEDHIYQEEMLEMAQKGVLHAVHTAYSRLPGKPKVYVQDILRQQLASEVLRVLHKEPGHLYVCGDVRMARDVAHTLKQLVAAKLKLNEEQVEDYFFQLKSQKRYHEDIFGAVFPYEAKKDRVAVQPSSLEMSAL
Assay: DAN assay of nitric oxide production (hiNOS)
Assay type: cell-based
Details: enzyme expressed in HEK293 cells transiently transfected with human iNOS
Source text: The source of nitric oxide synthase (NOS) enzyme can be generated in several ways including induction of endogenous iNOS using cytokines and/or lipopolysaccharide (LPS) in various cell types known in the art. […] The level of nitrate or nitrite in the specimen can be quantified by any method known in the art which provides adequate sensitivity and reproducibility. […]

Would you please look over these solved cases?
Cc1ncsc1C(=O)N(Cc1cc(=O)n(C)c2c(F)cccc12)c1cccc(Cl)c1 | > 5 µM
O=c1cc(Cn2cnc(-c3ccccc3)c2)c2ccc(F)c(F)c2[nH]1 | > 5 µM
COC(=O)C(=O)N(Cc1cc(=O)[nH]c2c(F)cccc12)c1cccc(Cl)c1 | > 5 µM
Cc1cccc(N(Cc2cc(=O)[nH]c3c(F)cccc23)C(=O)c2scnc2C)c1 | ≤ 5 µM
Cc1ncsc1CN(Cc1cc(=O)[nH]c2c(F)cccc12)c1cccc(Cl)c1 | ≤ 5 µM
CN(C)c1ccccc1-c1nc2ccccc2n1Cc1cc(=O)[nH]c2c(F)c(F)ccc12 | > 5 µM
CC(C)(C)OC(=O)N1CCC(c2nc3ccccc3n2Cc2cc(=O)[nH]c3c(F)c(F)ccc23)CC1 | > 5 µM
Cc1cccnc1C(=O)N(Cc1cc(=O)[nH]c2c(F)cccc12)c1cccc(Cl)c1 | > 5 µM

Then this compound:
Note to self: EC50 of `O=C(c1nnc[nH]1)N(Cc1cc(=O)[nH]c2c(F)c(F)ccc12)c1cccc(Cl)c1` with human iNOS (Homo sapiens) was ≤ 5 µM
